B1: TPR 5TU (parent)
chain: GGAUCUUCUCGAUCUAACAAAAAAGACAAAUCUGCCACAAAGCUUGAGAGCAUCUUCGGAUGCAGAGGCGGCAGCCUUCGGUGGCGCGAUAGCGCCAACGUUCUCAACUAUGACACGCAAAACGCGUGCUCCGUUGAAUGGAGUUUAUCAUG

variants of: B1; experiment: polymerase ribozyme fitness, log enrichment relative to wild type (log ratio); higher = more active; in vitro selection for triplet polymerase activity
Variants at the floor of the assay were thinned out.
# polymerase ribozyme fitness (log ratio) per entry
quantityName: polymerase ribozyme fitness (log ratio)

> print(dat)
                                 variantname                             quantityname  endpointvalue
 1                           G83C C85G A122U  polymerase ribozyme fitness (log ratio)         ≤ -4.2
 2                            A26G U33C C85U  polymerase ribozyme fitness (log ratio)         ≤ -4.2
 3                                 U7G U130A  polymerase ribozyme fitness (log ratio)          -4.18
 4                               A121G U134G  polymerase ribozyme fitness (log ratio)          -2.56
 5                          U90A A106C A121U  polymerase ribozyme fitness (log ratio)         ≤ -4.2
 6      U55A C63G C76U U78G G92C G136U G141C  polymerase ribozyme fitness (log ratio)         ≤ -4.2
 7                      A21U G80C C85A U127A  polymerase ribozyme fitness (log ratio)         ≤ -4.2
 8                            A39C C79G G92A  polymerase ribozyme fitness (log ratio)          -3.32
 9                       C10A A12G A23C U55A  polymerase ribozyme fitness (log ratio)         ≤ -4.2
10                                C79U A121U  polymerase ribozyme fitness (log ratio)           -1.2
11                          C99G G117C A122G  polymerase ribozyme fitness (log ratio)          -1.51
12                      A39C C76U G83U U104C  polymerase ribozyme fitness (log ratio)         ≤ -4.2
13  C54G U55A G70U G81C C87U G94C C96A C105A A120C  polymerase ribozyme fitness (log ratio)         ≤ -4.2
14                           C79U C85U A115C  polymerase ribozyme fitness (log ratio)         ≤ -4.2
15           A39C C54A G65C C93A G124U A138C  polymerase ribozyme fitness (log ratio)         ≤ -4.2
16                 U4G A20U C93G U109A A138G  polymerase ribozyme fitness (log ratio)         ≤ -4.2
17                                 A22C G92C  polymerase ribozyme fitness (log ratio)          -1.73
18           C35U A47C U56G A64U A106U G133U  polymerase ribozyme fitness (log ratio)         ≤ -4.2
19       C32A A41C C51U G58A C69U C93U C108U  polymerase ribozyme fitness (log ratio)         ≤ -4.2
20                  C5U C54U U82A C95G A150U  polymerase ribozyme fitness (log ratio)          -1.62
21                           C57G A91G A147C  polymerase ribozyme fitness (log ratio)          -3.13
22                  C27G A28C A41U A91G C93U  polymerase ribozyme fitness (log ratio)         ≤ -4.2
